Reference source for all entries: patent US4268630A

Measured Conversion Rates, sec-alcohol to methyl ketone of individual entries
Test system: Methylomonas methanica S1 (NRRL B-11,199)
Test Protocol: Oxidation of sec-alcohols to ketones by resting cell suspension
Format: cell-based
Condition Summary: cells grown on methanol
Measurement Type: Conversion Rates, sec-alcohol to methyl ketone (μmoles/hr/mg protein)

- Molecule: "CC(C)O"
  Units Symbol: "μmoles/hr/mg protein"
  Number: 0.35
- Molecule: "CCCCC(C)O (stereo not shown)"
  Units Symbol: "μmoles/hr/mg protein"
  Number: 0.04
- Molecule: "CCC(C)O (stereo not shown)"
  Units Symbol: "μmoles/hr/mg protein"
  Number: 0.40
- Molecule: "CCCC(C)O (stereo not shown)"
  Units Symbol: "μmoles/hr/mg protein"
  Number: 0.45

---

System: secondary alcohol dehydrogenase
Test Protocol: Activity of purified yeast-derived secondary alcohol dehydrogenase
Type: biochemical, Pichia sp. NRRL Y-11,328
Measurement Type: substrate specificity of purified yeast secondary alcohol dehydrogenase (in words)

- Smiles String: "CCCCO"
  Target Or Test System: "secondary alcohol dehydrogenase"
  Result: "not oxidized"
- Smiles String: "CCCO"
  Target Or Test System: "secondary alcohol dehydrogenase"
  Result: "not oxidized"
- Smiles String: "CCO"
  Target Or Test System: "secondary alcohol dehydrogenase"
  Result: "not oxidized"

---

Test system: Methylosinus trichosporium OB3b (NRRL B-11,196)
Test Protocol: Oxidation of sec-alcohols to ketones by resting cell suspension
Type: cell-based
Condition Summary: methyl formate-grown
Measured Conversion Rates, sec-alcohol to methyl ketone of individual entries
Measurement Type: Conversion Rates, sec-alcohol to methyl ketone

- Molecule: "CCCC(C)O (stereo not shown)"
  Result: "1.5 μmoles/hr/mg protein"
- Molecule: "CC(C)O"
  Result: "0.95 μmoles/hr/mg protein"
- Molecule: "CCC(C)O (stereo not shown)"
  Result: "4.5 μmoles/hr/mg protein"
- Molecule: "CCCCC(C)O (stereo not shown)"
  Result: "0.72 μmoles/hr/mg protein"

---

System: cell extracts of Hansenula polymorpha ATCC 26,012
Test Protocol: NAD+-dependent oxidation of secondary alcohols by cell extracts of yeasts
Format: biochemical
Condition Summary: cell extracts, grown on methanol, NAD+; gas chromatography
Measured Conversion Rate, secondary alcohol to methylketone of individual entries
Measurement Type: Conversion Rate, secondary alcohol to methylketone (μmoles/hr/mg Protein)

- Molecule: "CCCCC(C)O (stereo not shown)"
  Target Or Test System: "cell extracts of Hansenula polymorpha ATCC 26,012"
  Number: 0.51
- Molecule: "CC(C)O"
  Target Or Test System: "cell extracts of Hansenula polymorpha ATCC 26,012"
  Number: 4.8
- Molecule: "CCCC(C)O (stereo not shown)"
  Target Or Test System: "cell extracts of Hansenula polymorpha ATCC 26,012"
  Number: 1.0
- Molecule: "CCC(C)O (stereo not shown)"
  Target Or Test System: "cell extracts of Hansenula polymorpha ATCC 26,012"
  Number: 5.2

---

Test system: Methylobacterium organophilum XX
Test Protocol: Oxidation of n-alkanes to methyl ketones by resting cell suspension
Format: cell-based
Condition Summary: cell suspension grown on methane
Measured Conversion Rates, n-alkane to methyl ketone of individual entries
Measurement Type: Conversion Rates, n-alkane to methyl ketone (μmoles/hr/mg protein)

- Smiles String: "CCCCCC"
  Number: 0.09
- Smiles String: "CCC"
  Number: 2.8
- Smiles String: "CCCCC"
  Number: 0.58
- Smiles String: "CCCC"
  Number: 2.0

---

System: Methylobacterium organophilum XX (ATCC 27886)
Test Protocol: Oxidation of sec-alcohols to ketones by resting cell suspension
Format: cell-based
Condition Summary: cells grown on methanol
Measurement Type: Conversion Rates, sec-alcohol to methyl ketone (μmoles/hr/mg protein)

- Molecule: "CCCC(C)O (stereo not shown)"
  Target Or Test System: "Methylobacterium organophilum XX (ATCC 27886)"
  Number: 0.9
- Molecule: "CCC(C)O (stereo not shown)"
  Target Or Test System: "Methylobacterium organophilum XX (ATCC 27886)"
  Number: 2.8
- Molecule: "CC(C)O"
  Target Or Test System: "Methylobacterium organophilum XX (ATCC 27886)"
  Number: 0.70
- Molecule: "CCCCC(C)O (stereo not shown)"
  Target Or Test System: "Methylobacterium organophilum XX (ATCC 27886)"
  Number: 1.1

---

Test system: secondary alcohol dehydrogenase (SADH)
Test Protocol: Activity of purified secondary alcohol dehydrogenase (inhibition, substrate specificity, Km)
Format: biochemical, Pseudomonas sp. ATCC 21439
Measurement Type: substrate specificity of purified SADH (in words)

- Molecule: "CC(C)O [2-Propanol, 2-propanol]"
  Result: "highest"
- Molecule: "CCCCC(C)O (stereo not drawn) [2-Hexanol, 2-hexanol]"
  Result: "lower rate"
- Molecule: "CC(O)CCO (stereo not drawn) [butane 1,3-diol]"
  Result: "lower rate"
- Molecule: "CC=O [acetaldehyde]"
  Result: "lower rate"
- Molecule: "CCC(C)O (stereo not drawn) [2-Butanol, 2-butanol]"
  Result: "highest"
- Molecule: "CCC(O)CO (stereo not drawn) [butane 1,2-diol]"
  Result: "not oxidized"
- Molecule: "C=O [formaldehyde]"
  Result: "not oxidized"
- Molecule: "Oc1ccccc1 [phenol]"
  Result: "not oxidized"
- Molecule: "O=C(O)CCC(=O)O [succinic acid]"
  Result: "not oxidized"
- Molecule: "OC1CCCCC1 [cyclohexanol]"
  Result: "lower rate"
- Molecule: "CC(O)C(C)O (stereo not drawn) [butane 2,3-diol]"
  Result: "lower rate"
- Molecule: "CC(C)CO [isobutanol]"
  Result: "not oxidized"
- Molecule: "CCCC(C)O (stereo not drawn) [2-Pentanol, 2-pentanol]"
  Result: "lower rate"
- Molecule: "O=Cc1ccccc1 [benzaldehyde]"
  Result: "not oxidized"
- Molecule: "CCCO [propanol]"
  Result: "lower rate"

---

Test system: secondary alcohol dehydrogenase (SADH)
Test Protocol: Activity of purified secondary alcohol dehydrogenase (inhibition, substrate specificity, Km)
Type: biochemical, Pseudomonas sp. ATCC 21439
Condition Summary: purified SADH
Experimental: Secondary alcohol dehydrogenase (SADH) from an obligate methanol utilizer, Pseudomonas sp. ATCC 21439 was purified as follows. […] 0.05 M sodium phosphate buffer, pH 7.0 with 0.5 mM dithiothretol (buffer A) and were disrupted sonically (5×1 min.). The crude extract was separated by centrifugation. The crude extract was heat-treated at 50° C. in a water bath for 10 minutes. The resulting precipitate was removed by centrifugation. […]

- Compound: "NC(N)=S [Thiourea, reference compound]"
  Target Or Test System: "secondary alcohol dehydrogenase (SADH)"
  inhibition of SADH activity (in words): "not inhibited"
- Compound: "CCN1C(=O)C=CC1=O [N-ethylmalemide, N-ethylmaleimide, reference compound]"
  Target Or Test System: "secondary alcohol dehydrogenase (SADH)"
  inhibition of SADH activity (in words): "not inhibited"
- Compound: "O=C(O)c1cc(SSc2ccc([N+](=O)[O-])c(C(=O)O)c2)ccc1[N+](=O)[O-] [5,5'-dithiobis(2-nitrobenzoic acid), reference compound]"
  Target Or Test System: "secondary alcohol dehydrogenase (SADH)"
  inhibition of SADH activity (in words): "inhibited"
- Compound: "CCC(C)=O [2-Butanone, 2-butanone]"
  Target Or Test System: "secondary alcohol dehydrogenase (SADH)"
  inhibition of SADH activity (in words): "inhibited"

---

System: secondary alcohol dehydrogenase
Test Protocol: Activity of purified yeast-derived secondary alcohol dehydrogenase
Format: biochemical, Pichia sp. NRRL Y-11,328
Condition Summary: primary alcohols tested at 10^-3 M
Measurement Type: inhibition of secondary alcohol dehydrogenase activity (in words)

- Molecule: "c1c[nH]cn1 [imidiazole, reference compound]"
  Result: "strongly inhibited"
- Molecule: "c1cnc2c(c1)ccc1cccnc12 [1,10-phenanthroline, reference compound]"
  Result: "strongly inhibited"
- Molecule: "O=S(=O)([O-])[O-].[Cu+2] [cupric sulfate, reference compound]"
  Result: "inhibited"
- Molecule: "N#C[S][Hg][S]C#N [mercuric thiocyanate, reference compound]"
  Result: "inhibited"
- Molecule: "O=[N+]([O-])[O-].[Ag+] [silver nitrate, reference compound]"
  Result: "inhibited"
- Molecule: "N[C@@H](CCC(=O)N[C@@H](CS)C(=O)NCC(=O)O)C(=O)O [GSH, glutathione, reference compound]"
  Result: "strongly inhibited"
- Molecule: "O=C(O)c1cc[c]([Hg+])cc1.[OH-] [p-hydroxymercuribenzoate, reference compound]"
  Result: "strongly inhibited"

---

System: Hansenula polymorpha ATCC 26012
Test Protocol: Oxidation of sec-alcohols to ketones by cell suspensions of yeasts
Assay type: cell-based
Condition Summary: growth substrate Propylamine
Measured Conversion Rate, sec-alcohol to ketone of individual entries

- Compound: "CC(C)O"
  Conversion Rate, sec-alcohol to ketone: "4.1 μmoles/hr/mg of protein"
- Compound: "CCCCC(C)O (stereo not shown)"
  Conversion Rate, sec-alcohol to ketone: "0.48 μmoles/hr/mg of protein"
- Compound: "CCC(C)O (stereo not shown)"
  Conversion Rate, sec-alcohol to ketone: "4.0 μmoles/hr/mg of protein"
- Compound: "CCCC(C)O (stereo not shown)"
  Conversion Rate, sec-alcohol to ketone: "0.82 μmoles/hr/mg of protein"
